Tested on: CCRIS mutagenicity, Ames/micronucleus/aberration tests
assay_remarks: CCRIS mutagenicity studies
run_conditions: Test System: AMES SALMONELLA TYPHIMURIUM; Strain/Indicator: TA1535; Metabolic Activation: NONE; Method: STANDARD PLATE
Active and inactive are the calls of the source. No rule for the calls is given here.
parameter: mutagenic call

- CCC(=O)n1ncc(Cl)c(Cl)c1=O: inactive; negative
- C[C@@H]1O[C@H](C)[C@@H](O)[C@H](O)[C@@H]1OS(=O)(=O)O: inactive; negative
- Cc1c(-c2cnccn2)ssc1=S: inactive; negative
- [Cl][Cr]([Cl])[Cl]: inactive; negative
- CN(C(=O)CCl)c1snc2ccccc12: inactive; negative

IN: State the measured mutagenic call (CCRIS mutagenicity, Ames/micronucleus/aberration tests) of `O=S(=O)(Oc1ccc(Cl)c(Cl)c1)c1cccc2cccnc12`
OUT: inactive; negative

IN: State the measured mutagenic call (CCRIS mutagenicity, Ames/micronucleus/aberration tests) of `COP(=S)(OC)SCN1C(=O)c2ccccc2C1=O`
OUT: inactive; negative

IN: State the measured mutagenic call (CCRIS mutagenicity, Ames/micronucleus/aberration tests) of `Nc1ccccc1C(F)(F)F`
OUT: inactive; negative

IN: State the measured mutagenic call (CCRIS mutagenicity, Ames/micronucleus/aberration tests) of `CNC(=O)c1c(N(C)N=O)ncn1C`
OUT: inactive; negative

IN: State the measured mutagenic call (CCRIS mutagenicity, Ames/micronucleus/aberration tests) of CC(O)CN(C)c1ccc(NN)nn1 (centres undefined)
OUT: inactive; negative

IN: State the measured mutagenic call (CCRIS mutagenicity, Ames/micronucleus/aberration tests) of C(COCC1CO1)OCC1CO1 (centres undefined)
OUT: active; positive

IN: State the measured mutagenic call (CCRIS mutagenicity, Ames/micronucleus/aberration tests) of `Cc1cn2c(N=O)c(-c3ccc([N+](=O)[O-])cc3)nc2s1`
OUT: inactive; negative

IN: State the measured mutagenic call (CCRIS mutagenicity, Ames/micronucleus/aberration tests) of `C[C@@H]1O[C@@H]1C`
OUT: active; positive

IN: State the measured mutagenic call (CCRIS mutagenicity, Ames/micronucleus/aberration tests) of `CC(C)OC(=O)COc1ccc(Cl)cc1Cl`
OUT: inactive; negative

IN: State the measured mutagenic call (CCRIS mutagenicity, Ames/micronucleus/aberration tests) of `CCOc1ccc(NC(C)=O)cc1`
OUT: inactive; negative

IN: State the measured mutagenic call (CCRIS mutagenicity, Ames/micronucleus/aberration tests) of `O=c1oc2cc(O)ccc2c2oc3cc(O)ccc3c12`
OUT: inactive; negative

IN: State the measured mutagenic call (CCRIS mutagenicity, Ames/micronucleus/aberration tests) of `O=C/C(Cl)=C(/Cl)C(=O)O`
OUT: active; positive

* * *

Tested on: CCRIS mutagenicity, Ames/micronucleus/aberration tests
assay_remarks: CCRIS mutagenicity studies
run_conditions: Test System: AMES SALMONELLA TYPHIMURIUM; Strain/Indicator: TA1537; Metabolic Activation: NONE; Method: STANDARD PLATE
Activity calls are given as the source filed them. How the calls were made is not given here.
parameter: mutagenic call

These solved cases illustrate the format of a correct answer.
• CCN(CCCl)CCCNc1c2ccccc2nc2ccccc12 = active; positive
• COc1ccccc1/C=C/C=O = inactive; negative
• O=C/C=C/c1ccccc1 = inactive; negative
• O=c1oc2cc(O)ccc2c2oc3cc(O)ccc3c12 = inactive; negative
• CN(C)N=Nc1ccc(Cl)cc1 = active; positive

IN: Return mutagenic call (reported value) for this compound: `Nc1ccccc1`
OUT: inactive; negative

IN: Return mutagenic call (reported value) for this compound: `CS(=O)(=O)Nc1ccc(Nc2c3ccc(N=[N+]=[N-])cc3nc3cc(N=[N+]=[N-])ccc23)cc1`
OUT: active; positive

IN: Return mutagenic call (reported value) for this compound: `CNC(=O)CSP(=S)(OC)OC`
OUT: inactive; negative

IN: Return mutagenic call (reported value) for this compound: `Cc1ccc(N)cc1Cl`
OUT: inactive; negative

IN: Return mutagenic call (reported value) for this compound: `C[n+]1c2n(c(=O)c3ccccc31)CCc1c-2[nH]c2ccccc12`
OUT: inactive; negative

IN: Return mutagenic call (reported value) for this compound: `CN1CCN(C2=Nc3ccccc3Oc3ccc(Cl)cc32)CC1`
OUT: inactive; negative

IN: Return mutagenic call (reported value) for this compound: `Cc1c(-c2cnccn2)ssc1=S`
OUT: inactive; negative

IN: Return mutagenic call (reported value) for this compound: `CS(=O)(=O)n1ncc(Cl)c(Cl)c1=O`
OUT: inactive; negative

IN: Return mutagenic call (reported value) for this compound: `CCC(=O)Nc1snc2ccccc12`
OUT: inactive; negative
